# Test system: platelet phosphodiesterase
# procedureText: Inhibition of platelet phosphodiesterase activity (H3-cAMP hydrolysis)
# Format: biochemical
# measurementSetup: 5 minutes at 30° C, platelet preparations
endpointName: pIC50
Give bare numbers, as −log10 of the molar value.

smilesEntry: Nc1ncnc2c1ncn2[C@@H]1O[C@@H]2COP(=O)(O)O[C@H]2[C@H]1OC(=O)c1ccc(C(=O)c2ccccc2)cc1
pIC50: 5.00

Consider now this further compound.
// query Which value of pIC50 has been reported for Nc1nc2c(ncn2[C@@H]2O[C@@H]3COP(=O)(O)O[C@H]3[C@H]2OC(=O)c2ccc(C(=O)c3ccccc3)cc2)c(=O)[nH]1 in the records?
// result 5.52
